# Test system: SNB-78
# EXPERIMENT_SUMMARY: NCI tumour cell line growth inhibition, 48 h
Activity calls are given as the source filed them. Cut-off read from the data, not from the text of the source: active = GI50 up to about 1.1 µM and inactive = higher.
Response enum: T (active), F (inactive)

Past entries and their recorded results:
• O=C1NC(=O)C(CCO)(c2ccccc2)C(=O)N1 = F
• O=S1(=O)CCCS(=O)(=O)C(c2ccccc2)=C1c1ccccc1 = F
• Nc1ncnc2c(C3OC(CO)C(O)C3O)c[nH]c12 (centres undefined) = T

Query molecule follows.
Incoming: I'd appreciate the recorded outcome for `O=C(O/N=C1/CCC/C1=C\c1ccccc1)c1ccc([N+](=O)[O-])cc1` from this test.
Outgoing: F

###

# Test system: T47D
# EXPERIMENT_SUMMARY: NCI tumour cell line growth inhibition, 48 h
Active and inactive are the calls of the source. No stated cut-off is given here; in the data, active = GI50 up to about 1.1 µM and inactive = higher.
READOUT_TYPE: GI50

Below: 5 compounds and their reported GI50.
- N#CCSc1c(-c2ccccc2)c(=O)n(-c2ccccc2)c(=S)n1-c1ccccc1: > 100 µM (inactive)
- COc1ccc(Cl)cc1NC(=O)c1cccc([N+](=O)[O-])c1O: 9.25 µM (inactive)
- Cn1c(COC(=O)NC2CCCCC2)c(COC(=O)NC2CCCCC2)c2ccc3ccccc3c21: 50.4 µM (inactive)
- N#C/C=C1\C=CC(O)C(O)C1OC1OC(CO)C(O)C(O)C1O (stereo not drawn): > 100 µM (inactive)
- CS(=O)(=O)O[C@H]1CN2C[C@@H](O)[C@@H](O)[C@H]2[C@H]1CO.[B]: > 100 µM (inactive)

Field: GI50. Fill in for each record below.
1. C[N+]1([O-])C2CCC1CC(OC(=O)C(CO)c1ccccc1)C2 (stereo not drawn)
2. CCOC(=O)CCC(NC(=O)c1ccc(Nc2nc3ccccc3nc2-c2cccs2)cc1)C(=O)OCC (stereo not drawn)
3. Oc1c(Br)ccc2cccnc12
4. CC(C)(C)C1=C(Br)C(Br)(C(C)(C)C)OP1(=O)c1ccccc1 (stereo not drawn)
5. COc1ccc(/C=N/n2c(-c3ccccc3)n[nH]c2=O)c(OC)c1
6. CCC1(O)CC(OC2CC(N(C)C)C(OC3CC(O)C(OC4OC(C)C(=O)C=C4N)C(C)O3)C(C)O2)c2c(O)c3c(c(O)c2C1C(=O)OC)C(=O)c1cccc(O)c1C3=O (stereo not drawn)
7. C[C@]12CC[C@@H]3c4ccc(OC(=O)c5ccccc5)cc4CC[C@H]3[C@@H]1CCC2OC(=O)c1cccc2c(=O)c3ccccc3[nH]c12 (stereo partly drawn)

Outgoing:
["> 100 µM (inactive)", "12 µM (inactive)", "1.51 µM (inactive)", "31.5 µM (inactive)", "50 µM (inactive)", "0.0118 µM (active)", "26.4 µM (inactive)"]

Incoming: Name the recorded GI50 for `CCn1c(SCC(=O)NNC(=S)Nc2ccc(F)cc2)nc2ccccc2c1=O` .
Outgoing: 57.7 µM (inactive)

###

# Tested on: UACC-62
# EXPERIMENT_SUMMARY: NCI tumour cell line growth inhibition, 48 h
Calls of active or inactive are those of the source. Rule as the data show it: active = GI50 up to about 1.1 µM and inactive = higher.
Response enum: active, inactive

Past entries and their recorded results:
• CC1(C)CC(=O)C2=C(C1)NC(SCC(=O)O)=C(C#N)C2c1ccc(Br)cc1 (configuration not stated) = inactive
• N#CCSc1c(-c2ccccc2)c(=O)n(-c2ccccc2)c(=S)n1-c1ccccc1 = inactive

Incoming: I'd appreciate the recorded outcome for `CCOC(=O)c1cc(-c2ccc([N+](=O)[O-])cc2)c([N+](=O)[O-])[nH]1` from this test.
Outgoing: inactive

Incoming: I'd appreciate the recorded outcome for `CC(C)(C)OC(=O)N1C(OP(=O)(Oc2ccccc2)Oc2ccccc2)=CSc2ccccc21` from this test.
Outgoing: inactive

Incoming: I'd appreciate the recorded outcome for `O=C1C=C(Nc2ccc(S(=O)(=O)Nc3nccs3)cc2)c2ccccc2C1=O` from this test.
Outgoing: inactive

Incoming: I'd appreciate the recorded outcome for COc1cc2c(oc(=O)c3cc(C)cc(OC)c32)c2c(C3OC(C)C(O)C(C)(O)C3O)ccc(O)c12 (configuration not stated) from this test.
Outgoing: active

Incoming: I'd appreciate the recorded outcome for `O=[N+]([O-])c1ccc(-c2cnc3ccccn23)cc1` from this test.
Outgoing: inactive

Incoming: I'd appreciate the recorded outcome for CC(=O)OC1C(COC(=O)c2ccccc2)OC(Nc2ncc(-c3ccc(Br)cc3)s2)C(OC(=O)c2ccccc2)C1OC(=O)c1ccccc1 (configuration not stated) from this test.
Outgoing: inactive

Incoming: I'd appreciate the recorded outcome for `CCC(=O)NC(NNS(=O)(=O)c1ccc(C)cc1)(C(F)(F)F)C(F)(F)F` from this test.
Outgoing: inactive

Incoming: I'd appreciate the recorded outcome for O=C(O)C1CCc2nnc(-c3ccccc3)n21 (configuration not stated) from this test.
Outgoing: inactive

Incoming: I'd appreciate the recorded outcome for `CCN(CC)C(=O)N[C@@H](Cc1ccccc1)C(=O)NC` from this test.
Outgoing: inactive
